Experimental Details: NCI Yeast Anticancer Drug Screen. Data for the rad18 strain (AID 177)
Condition Details: S. cerevisiae rad18 mutant growth inhibition; at 33.0 µM
Protocol: Growth inhibition of yeast strains with defined genetic alterations is measured as a screen for potential anti-cancer activity. Selected strains with alterations in DNA damage repair or cell cycle control were exposed to compounds and growth inhibition was measured relative to vehicle treated controls. The strain used in this assay is rad18
The panel holds about 79,000 compounds, 15% with a hit somewhere; the sample as a whole holds those more often. Active and inactive are the calls of the source. No stated cut-off is given here; in the data, active means growth inhibition above about 70%; inactive means the rest.
Give your call using only these classes: yes (1) = active, no (0) = inactive

Problem: # lookup: test call for O=Cc1ccc(C(F)(F)F)cc1.[C-]#[O+].[C-]#[O+].[C-]#[O+].[Cr]
Solution: no (0)

Further cases:
Problem: # lookup: test call for O=C(c1ccccc1)C1C(c2ccccc2[N+](=O)[O-])N1C1CCCCC1 (stereo not given)
Solution: yes (1)

Problem: # lookup: test call for CCOC(=O)C1([Se]c2ccccc2)CCCC1=O (stereo not given)
Solution: no (0)

Problem: # lookup: test call for O=[N+]([O-])c1ccc(-n2nc3ccc4c(no[n+]4[O-])c3[n+]2[O-])c([N+](=O)[O-])c1
Solution: no (0)

Problem: # lookup: test call for COC(=O)C1c2cc3c(c(O)c2C(O)CC1(C)O)C(=O)c1c(O)cc2c(c1C3=O)OC1OC2(C)C(O)C(N(C)C)C1O (stereo not given)
Solution: yes (1)

Problem: # lookup: test call for C/C(CCl)=N/NC1=NC(c2ccccc2Cl)P(=O)(NCCCNP2(=O)SC(N/N=C(/C)CCl)=NC2c2ccccc2Cl)S1 (stereo not given)
Solution: no (0)
